Where do these numbers come from? They come from ChEMBL document CHEMBL1156229.

A collection of compounds and their measured inhibition
test-target: Autotaxin (Homo sapiens)
method-summary: Inhibition of human recombinant C-terminal FLAG-tagged autotaxin expressed in baculovirus-infected Sf9 cells assessed as FS-3 hydrolysis at 10 uM relative to control
Give the value in % but do not write % after it.

See these solved cases before continuing.
INSERT INTO measurements (record_smiles, endpoint, display_unit, measured_result) VALUES
  ('O=C(N/N=C/c1ccccc1S(=O)(=O)O)N/N=C/c1ccccc1S(=O)(=O)O', 'inhibition', '%', -5),
  ('Cc1cccc(/N=N/c2c(S(=O)(=O)O)cc3cc(NC(=O)Nc4ccc5c(O)c(/N=N/c6ccc7cc(S(=O)(=O)O)ccc7c6)c(S(=O)(=O)O)cc5c4)ccc3c2O)c1', 'inhibition', '%', 80),
  ('CC(=O)Nc1cc(/N=N/c2ccc(NC(=O)c3ccc(N)cc3)cc2C)c(S(=O)(=O)O)cc1/N=N/c1ccc(/N=N/c2ccc(S(=O)(=O)O)cc2)cc1', 'inhibition', '%', 74);

Using the record for Nc1c(S(=O)(=O)O)cc2cc(S(=O)(=O)O)ccc2c1/N=N/c1ccc(-c2ccc(/N=N/c3c(N)c(S(=O)(=O)O)cc4cc(S(=O)(=O)O)ccc34)c(S(=O)(=O)O)c2)cc1 , report its inhibition.
51
